# Tested on: Klebsiella pneumoniae
# experimentDescription: Antimicrobial activity against carbapenem-resistant Klebsiella pneumoniae ZR01 from patient sputum by agar dilution method
# Format: functional
Listed compounds paired with reported MIC

Sample answers from the record:
C[C@@H](O)[C@H]1C(=O)N2C(C(=O)O)=C(SCCNC=N)C[C@H]12 [IMIPENEM ANHYDROUS] | > 32 µg/mL
CC(C)(O/N=C(\C(=O)N[C@@H]1C(=O)N2C(C(=O)[O-])=C(C[n+]3ccccc3)CS[C@H]12)c1csc(N)n1)C(=O)O | > 256 µg/mL
C[C@H]1[C@H](NC(=O)/C(=N\OC(C)(C)C(=O)O)c2csc(N)n2)C(=O)N1S(=O)(=O)O | > 256 µg/mL
CO[C@H]1/C=C/O[C@@]2(C)Oc3c(C)c(O)c4c(O)c(c(/C=N/N5CCN(C)CC5)c(O)c4c3C2=O)NC(=O)/C(C)=C\C=C\[C@H](C)[C@H](O)[C@@H](C)[C@@H](O)[C@@H](C)[C@H](OC(C)=O)[C@@H]1C | 16 µg/mL

Recorded MIC for CO/N=C(\C(=O)N[C@@H]1C(=O)N2C(C(=O)[O-])=C(C[N+]3(C)CCCC3)CS[C@H]12)c1csc(N)n1 [CEFEPIME] , please?
> 256 µg/mL

----------
Entries and their MIC values follow.
# Test system: Escherichia coli
# experimentDescription: Antimicrobial activity against Escherichia coli DH5-alpha pYW1 transformants expressing KPC2 gene by agar dilution method
# Type: functional
# experimentalConditions: DH5alpha
Report as a plain number; the unit mg/L is understood.

NCC[C@H](O)C(=O)N[C@@H]1C[C@H](N)[C@@H](O[C@H]2O[C@H](CN)[C@@H](O)[C@H](O)[C@H]2O)[C@H](O)[C@H]1O[C@H]1O[C@H](CO)[C@@H](O)[C@H](N)[C@H]1O | 1
CO/N=C(\C(=O)N[C@@H]1C(=O)N2C(C(=O)O)=C(CSc3nc(=O)c(O)nn3C)CS[C@H]12)c1csc(N)n1 | 8
C[C@@H](O)[C@H]1C(=O)N2C(C(=O)O)=C(S[C@@H]3CN[C@H](C(=O)Nc4cccc(C(=O)O)c4)C3)[C@H](C)[C@H]12 | 0.5
CO/N=C(\C(=O)N[C@@H]1C(=O)N2C(C(=O)O)=C(COC(C)=O)CS[C@H]12)c1csc(N)n1 | 4
C[C@H]1[C@H](NC(=O)/C(=N\OC(C)(C)C(=O)O)c2csc(N)n2)C(=O)N1S(=O)(=O)O | 32
C[C@@H](O)[C@H]1C(=O)N2C(C(=O)O)=C(SCCNC=N)C[C@H]12 [IMIPENEM ANHYDROUS] | 4
CO/N=C(\C(=O)N[C@@H]1C(=O)N2C(C(=O)[O-])=C(C[N+]3(C)CCCC3)CS[C@H]12)c1csc(N)n1 [CEFEPIME] | 2
CO[C@H]1/C=C/O[C@@]2(C)Oc3c(C)c(O)c4c(O)c(c(/C=N/N5CCN(C)CC5)c(O)c4c3C2=O)NC(=O)/C(C)=C\C=C\[C@H](C)[C@H](O)[C@@H](C)[C@@H](O)[C@@H](C)[C@H](OC(C)=O)[C@@H]1C | 16
C[C@@H](O)[C@H]1C(=O)N2C(C(=O)O)=C(S[C@@H]3CN[C@H](C(=O)N(C)C)C3)[C@H](C)[C@H]12 | 4

Turning now to a further record.
Param readout = MIC; param system = Escherichia coli; param query = "CC(C)(O/N=C(\C(=O)N[C@@H]1C(=O)N2C(C(=O)[O-])=C(C[n+]3ccccc3)CS[C@H]12)c1csc(N)n1)C(=O)O" ; response: value
4
